- assayed.system: wild-type and mutant CD3 binding domains harbored within TROP2 TCE constructs
- test.description: ELISA binding of peptide masks to wild-type and mutated TROP2 TCEs
- experimental.setup: read-out: TCE-3 (3075) (R100A) EC50; captured biotinylated peptide or CD3-biotin; binding of TCE-3, anti-CD3 R100A
metric: EC50 (nM)
Give bare numbers, in nM.

Name the recorded EC50 of the compound listed here: CSCC[C@H](NC(=O)[C@@H]1CSSC[C@H](NC(=O)[C@H](Cc2ccc(O)cc2)NC(=O)[C@H](C)N)C(=O)NCC(=O)N2CCC[C@H]2C(=O)N[C@@H](CCC(=O)O)C(=O)N[C@@H](Cc2ccccc2)C(=O)N[C@@H](CC(=O)O)C(=O)N[C@@H](CCC(=O)O)C(=O)N[C@@H](CO)C(=O)N[C@@H](C(C)C)C(=O)NCC(=O)N1)C(=O)O [Peptide-8]
1.85
